biological target: Adenosine receptor A1 (Homo sapiens) (UniProt P30542); assay: Displacement of [3H]DPCPX from human adenosine A1 receptor expressed in CHO cells at 10 uM after 60 mins; format: cell-based
Sequence (P30542 whole entry): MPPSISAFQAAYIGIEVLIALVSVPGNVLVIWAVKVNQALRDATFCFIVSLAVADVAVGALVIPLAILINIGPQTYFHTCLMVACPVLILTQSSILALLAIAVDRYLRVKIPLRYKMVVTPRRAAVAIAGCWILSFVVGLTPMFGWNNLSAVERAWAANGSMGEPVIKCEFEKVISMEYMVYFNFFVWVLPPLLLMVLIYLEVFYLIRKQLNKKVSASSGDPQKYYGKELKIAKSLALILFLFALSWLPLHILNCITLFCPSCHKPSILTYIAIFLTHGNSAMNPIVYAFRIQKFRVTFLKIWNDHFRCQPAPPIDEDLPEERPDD
Measured inhibition of individual entries
Attribute measured: inhibition (%)

1) CC1=C(C(=O)OC(C)C)C(c2ccsc2)NC(=O)N1 (racemic) | 26
2) CC1=C(C(=O)OC(C)C)C(c2ccoc2)NC(=O)N1 (racemic) | 25
3) CCOC(=O)C1=C(C)N=C(S)NC1c1cccs1 (racemic) | 2
4) CC1=C(C(=O)OC(C)C)C(c2ccsc2)NC(=O)N1C (racemic) | 33
5) CCOC(=O)C1=C(CC)NC(=O)NC1c1ccco1 (racemic) | 29
6) CCOC(=O)C1=C(C)N=C(S)NC1c1ccsc1 (racemic) | 23
7) CCOC(=O)C1=C(C(F)(F)F)NC(=O)NC1c1ccco1 (racemic) | 15
8) CC1=C(C(=O)OC(C)(C)C)C(c2ccco2)NC(=O)N1 (racemic) | 4
9) CCOC(=O)C1=C(C)NC(=O)NC1c1cccs1 (racemic) | 3
10) CC1=C(C(=O)OC(C)C)C(c2cccs2)NC(=O)N1C (racemic) | 22
11) CCOC(=O)C1=C(C)N(C)C(=O)NC1c1ccco1 (racemic) | 17
12) CC1=C(C(=O)OC(C)C)C(c2ccco2)NC(=O)N1C (racemic) | 28
13) CCOC(=O)C1=C(C)N=C(S)NC1c1ccco1 (racemic) | 1
14) CCOC(=O)C1=C(C)N(C)C(=O)NC1c1ccsc1 (racemic) | 30
15) CCOC(=O)C1=C(C)NC(=S)NC1c1ccoc1 (racemic) | 18
16) CC1=C(C(=O)OC(C)C)C(c2ccoc2)NC(=S)N1 (racemic) | 18
17) CC1=C(C(N)=O)C(c2ccco2)NC(=O)N1 (racemic) | 2

###

target: Adenosine receptor A2b (Homo sapiens) (UniProt P29275); assay: Displacement of [3H]DPCPX from human from adenosine A2B receptor in HEK293 cells at 10 uM after 30 mins by Scatchard plot analysis; format: cell-based
Sequence (P29275 whole entry): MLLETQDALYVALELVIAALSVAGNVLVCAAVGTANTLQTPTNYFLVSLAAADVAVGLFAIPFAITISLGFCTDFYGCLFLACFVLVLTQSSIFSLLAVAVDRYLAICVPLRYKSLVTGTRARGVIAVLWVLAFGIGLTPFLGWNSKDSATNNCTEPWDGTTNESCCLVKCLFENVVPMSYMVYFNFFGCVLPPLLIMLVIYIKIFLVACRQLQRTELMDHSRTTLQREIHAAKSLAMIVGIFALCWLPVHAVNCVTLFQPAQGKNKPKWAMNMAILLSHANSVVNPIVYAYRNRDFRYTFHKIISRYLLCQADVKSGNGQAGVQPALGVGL
Attribute measured: inhibition (%)

1) CC1=C(C(=O)Nc2ccccc2)C(c2ccco2)NC(=O)N1 (racemic) | 31
2) CC1=C(C(=O)OC(C)C)C(c2ccoc2)NC(=O)N1C (racemic) | 35
3) CC1=C(C(=O)OC(C)C)C(c2cccs2)NC(=O)N1 (racemic) | 44
4) CC1=C(C(N)=O)C(c2ccco2)NC(=O)N1 (racemic) | 2

###

Catalogue of inhibition readings, one per entry.
biological target: UniProt:P29274; test: Displacement of [3H]ZM241385 from adenosine A2A receptor in human HeLa cells at 10 uM after 30 mins; format: cell-based
Sequence (P29274 whole entry): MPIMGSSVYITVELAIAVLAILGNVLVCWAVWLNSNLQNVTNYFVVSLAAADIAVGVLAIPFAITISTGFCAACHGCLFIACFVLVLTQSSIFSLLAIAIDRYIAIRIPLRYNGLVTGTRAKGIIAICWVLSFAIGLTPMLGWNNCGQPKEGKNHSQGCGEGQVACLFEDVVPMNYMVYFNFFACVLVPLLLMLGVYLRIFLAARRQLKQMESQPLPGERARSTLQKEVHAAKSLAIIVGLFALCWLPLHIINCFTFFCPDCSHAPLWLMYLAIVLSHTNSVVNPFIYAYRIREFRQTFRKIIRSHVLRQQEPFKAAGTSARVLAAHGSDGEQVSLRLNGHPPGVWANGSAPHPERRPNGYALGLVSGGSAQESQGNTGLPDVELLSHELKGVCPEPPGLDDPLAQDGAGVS
Attribute measured: inhibition (%)

1) CC1=C(C(=O)OC(C)C)C(c2ccsc2)NC(=S)N1 (racemic) | 20
2) CCOC(=O)C1=C(C)N=C(S)NC1c1ccsc1 (racemic) | 28
3) CCOC(=O)C1=C(C)N(C)C(=O)NC1c1cccs1 (racemic) | 3
4) CC1=C(C(=O)OC(C)(C)C)C(c2ccco2)NC(=O)N1 (racemic) | 7

###

molecular target: Adenosine receptor A3 (Homo sapiens) (UniProt P0DMS8); assay: Displacement of [3H]NECA from adenosine A3 receptor in human HeLa cells at 10 uM after 180 mins; type: cell-based
Sequence (P0DMS8 whole entry): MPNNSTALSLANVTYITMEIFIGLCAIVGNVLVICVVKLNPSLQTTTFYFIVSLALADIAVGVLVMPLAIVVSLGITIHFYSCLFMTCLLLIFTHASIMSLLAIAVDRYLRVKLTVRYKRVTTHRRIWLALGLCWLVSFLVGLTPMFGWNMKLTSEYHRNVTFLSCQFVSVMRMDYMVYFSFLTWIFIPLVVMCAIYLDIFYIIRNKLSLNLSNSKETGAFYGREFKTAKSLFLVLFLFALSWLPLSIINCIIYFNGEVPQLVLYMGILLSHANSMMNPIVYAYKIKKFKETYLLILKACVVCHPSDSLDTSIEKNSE
Attribute measured: inhibition

1) CCOC(=O)C1=C(C)N=C(S)NC1c1ccco1 (racemic) | 5%
2) CC1=C(C(=O)Nc2ccccc2)C(c2ccco2)NC(=O)N1 (racemic) | 5%
3) CC1=C(C(=O)OC(C)C)C(c2ccsc2)NC(=O)N1 (racemic) | 5%
4) CCOC(=O)C1=C(C)NC(=O)NC1c1ccsc1 (racemic) | 11%
5) CCCC1=C(C(=O)OCC)C(c2ccco2)NC(=O)N1 (racemic) | 19%
6) COC(=O)C1=C(C)NC(=O)NC1c1ccco1 (racemic) | 13%
7) CCOC(=O)C1=C(C)NC(=O)NC1c1cccs1 (racemic) | 2%
8) CCOC(=O)c1c(-c2ccco2)nc(=O)[nH]c1C | 15%
9) CC1=C(C(=O)OC(C)C)C(c2ccoc2)NC(=O)N1 (racemic) | 3%
10) CC1=C(C(=O)OC(C)C)C(c2ccco2)NC(=S)N1 (racemic) | 4%
11) CCOC(=O)C1=C(C)NC(=O)N(C(C)=O)C1c1ccco1 (racemic) | 1%
12) CC1=C(C(=O)OC(C)C)C(c2ccsc2)NC(=O)N1C (racemic) | 14%
13) CC1=C(C(=O)OC(C)C)C(c2ccco2)NC(=O)N1C (racemic) | 18%
14) CC1=C(C(=O)OC(C)(C)C)C(c2ccco2)NC(=O)N1 (racemic) | 7%
15) CCOC(=O)C1=C(C)NC(=O)NC1c1ccoc1 (racemic) | 1%
16) CCOC(=O)C1=C(C(F)(F)F)NC(=O)NC1c1ccco1 (racemic) | 2%
17) CCOC(=O)C1=C(CC)NC(=O)NC1c1ccco1 (racemic) | 3%

Value source: ChEMBL document CHEMBL3091330
